Consider compounds characterized by their pIC50 with 5-hydroxytryptamine receptor 4 (Cavia porcellus, UniProt O70528).
Sequence (O70528 whole entry): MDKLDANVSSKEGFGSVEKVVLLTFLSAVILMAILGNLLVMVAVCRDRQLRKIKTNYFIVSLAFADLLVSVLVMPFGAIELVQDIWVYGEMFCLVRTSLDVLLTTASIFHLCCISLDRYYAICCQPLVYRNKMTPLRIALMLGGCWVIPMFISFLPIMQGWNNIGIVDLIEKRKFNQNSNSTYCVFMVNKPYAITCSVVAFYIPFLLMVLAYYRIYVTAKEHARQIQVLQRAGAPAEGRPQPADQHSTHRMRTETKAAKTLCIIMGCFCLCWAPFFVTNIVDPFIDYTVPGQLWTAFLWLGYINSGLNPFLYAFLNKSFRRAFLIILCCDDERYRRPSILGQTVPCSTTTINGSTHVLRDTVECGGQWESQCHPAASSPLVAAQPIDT
The quantity pIC50 is defined as the negative base-10 logarithm of the molar concentration.

Worked examples, 3 compounds total:
>  <Input Smiles>
CCCCN1CCC(COC(=O)c2c3n(c4ccccc24)CCCCO3)CC1

>  <Assay Value>
9.80

$$$$
>  <Input Smiles>
CCCCN1CCC(COC(=O)c2c3n(c4ccccc24)CCO3)CC1

>  <Assay Value>
10.00

$$$$
>  <Input Smiles>
CCCCN1CCC(COC(=O)c2c3n(c4ccccc24)CCCO3)CC1

>  <Assay Value>
10.60

$$$$

Query: Lab note: need pIC50 with 5-hydroxytryptamine receptor 4 (Cavia porcellus, UniProt O70528) for entry `CCCCN1CCC(COC(=O)c2c[nH]c3ccccc23)CC1` , please look it up.
Response: 9.30
